- target-or-test-system: D(3) dopamine receptor (Homo sapiens, UniProt P35462)
- Sequence (P35462 whole entry): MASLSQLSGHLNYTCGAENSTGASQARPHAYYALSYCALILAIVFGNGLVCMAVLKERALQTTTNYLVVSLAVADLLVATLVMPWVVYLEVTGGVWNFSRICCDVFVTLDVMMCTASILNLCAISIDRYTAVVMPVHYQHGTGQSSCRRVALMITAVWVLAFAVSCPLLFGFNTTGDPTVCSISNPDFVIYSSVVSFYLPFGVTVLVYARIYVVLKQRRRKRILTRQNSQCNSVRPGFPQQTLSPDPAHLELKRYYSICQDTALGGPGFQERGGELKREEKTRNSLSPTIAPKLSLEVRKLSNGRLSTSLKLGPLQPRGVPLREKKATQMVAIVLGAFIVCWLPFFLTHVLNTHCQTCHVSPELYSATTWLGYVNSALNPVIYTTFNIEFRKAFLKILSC
// boundary case: Ki equal to 20 nM maps to label 0; strictly smaller maps to label 1

molecule: O=Cc1cnn2ccc(OCCCCN3CCN(c4ccc(O)c5c4OCC(=O)N5)CC3)cc12
assigned-category: label 1
//
molecule: CCCN1CCN(c2ccc(O)c3[nH]c(=O)ccc23)CC1
assigned-category: label 0
//
molecule: O=C1COc2c(N3CCN(CCCCOc4ccn5ncc(/C=N/O)c5c4)CC3)ccc(O)c2N1 (stereo in doubt; 9c)
assigned-category: label 1
//
molecule: O=Cc1cnn2ccc(OCCCCN3CCN(c4ccc(O)c5[nH]c(=O)ccc45)CC3)cc12
assigned-category: label 1
//
molecule: O=Cc1cnn2ccc(OCCCCN3CCN(c4ccc(O)c5c4OCCO5)CC3)cc12
assigned-category: label 0
//
molecule: CCCN1CCN(c2ccc(O)c3c2OCCO3)CC1
assigned-category: label 0
//
molecule: Oc1ccc(N2CCNCC2)c2c1OCCO2
assigned-category: label 0
